# System: Hela (human cervical cancer cell)
# assayComment: MTT growth inhibition of human solid tumor cells, 72 h
# Assay type: cell-based
# testParameters: Homo sapiens, HeLa, 72 h; read-out: IC90
Collected IC90 values appear next to each entry.

Below, each entry is followed by its recorded IC90 result.
In [3]: df
Out[3]:
                                   compound      result
0  CC(=O)OCCN(C)Cc1oc2c(c1C)C(=O)C(=O)c1c-2ccc2c(C)cccc12     4 µg/mL
1  Cc1c(COC(=O)c2ccnc(Cl)c2)oc2c1C(=O)C(=O)c1c-2ccc2c(C)cccc12  14.9 µg/mL
2  Cc1c(CN(C)CCOC(=O)C2CCNCC2)oc2c1C(=O)C(=O)c1c-2ccc2c(C)cccc12   3.9 µg/mL
3  CCN(C)Cc1oc2c(c1C)C(=O)C(=O)c1c-2ccc2c(C)cccc12    11 µg/mL
4  Cc1c(CN(C)CCO)oc2c1C(=O)C(=O)c1c-2ccc2c(C)cccc12   1.8 µg/mL
5  Cc1c(CNCC2CC2)oc2c1C(=O)C(=O)c1c-2ccc2c(C)cccc12  18.5 µg/mL
6  Cc1c(CN2CCCN(C)CC2)oc2c1C(=O)C(=O)c1c-2ccc2c(C)cccc12  3.58 µg/mL
7  Cc1c(CN(C)CCOC(=O)CNC(=O)OC(C)(C)C)oc2c1C(=O)C(=O)c1c-2ccc2c(C)cccc12  1.84 µg/mL

Exercise: Supply reported IC90 belonging to this compound: CCCCNCc1oc2c(c1C)C(=O)C(=O)c1c-2ccc2c(C)cccc12
Solution: > 16 µg/mL

Exercise: Please supply the value of reported IC90 for the item Cc1c(CN(C)CCOC(=O)C(C)(C)C)oc2c1C(=O)C(=O)c1c-2ccc2c(C)cccc12
Solution: > 16 µg/mL

Exercise: Return IC90 (reported value) for this compound: Cc1c(C[N+](C)(CCO)Cc2ccc(F)c(Cl)c2)oc2c1C(=O)C(=O)c1c-2ccc2c(C)cccc12 (centres unmarked)
Solution: 7.35 µg/mL

###

# Test system: NB4 (acute promyelocytic leukemia, AML)
# assayComment: MTT growth inhibition of leukemia cells, 72 h
# Type: cell-based, human
# testParameters: Homo sapiens; NB4, 72 h; read-out: IC50
assayEndpoint: IC50 (µg/mL)
Just the number in µg/mL, nothing appended.

Please review the entries below; each comes with its answer.
                                   molecule                            assayedtarget  assayendpoint  quantitativeresult
0  Cc1c(CN(C)CCOC(=O)CCC(=O)O)oc2c1C(=O)C(=O)c1c-2ccc2c(C)cccc12 [BS-TA-73]  NB4 (acute promyelocytic leukemia, AML)           IC50                0.21
1  Cc1c(C[N+](C)(CCO)Cc2ccc(F)c(Cl)c2)oc2c1C(=O)C(=O)c1c-2ccc2c(C)cccc12 (centres unmarked) [BS-TA-60]  NB4 (acute promyelocytic leukemia, AML)           IC50                 0.9
2  Cc1c(CNCC2CC2)oc2c1C(=O)C(=O)c1c-2ccc2c(C)cccc12 [BS-TA-B07]  NB4 (acute promyelocytic leukemia, AML)           IC50                1.35
3  CCCCNCc1oc2c(c1C)C(=O)C(=O)c1c-2ccc2c(C)cccc12 [BS-TA-B10]  NB4 (acute promyelocytic leukemia, AML)           IC50                5.79
4  Cc1c(CN2CCCN(C)CC2)oc2c1C(=O)C(=O)c1c-2ccc2c(C)cccc12 [BS-TA-B12]  NB4 (acute promyelocytic leukemia, AML)           IC50                0.94

Exercise: Specify measured IC50 for Cc1c(CNCC2CCCCC2)oc2c1C(=O)C(=O)c1c-2ccc2c(C)cccc12 [BS-TA-B06] .
Solution: 2.13

Exercise: Return reported IC50. Input molecule: CCN(C)Cc1oc2c(c1C)C(=O)C(=O)c1c-2ccc2c(C)cccc12 [BS-TA-B03]
Solution: 0.92

Exercise: Read off the recorded IC50 for Cc1c(CN(C)CCOC(=O)OC(C)C)oc2c1C(=O)C(=O)c1c-2ccc2c(C)cccc12 [BS-TA-63]
Solution: 3.73

###

# Test system: Becap37 (human breast cancer cell)
# assayComment: MTT growth inhibition of human solid tumor cells, 72 h
# Assay type: cell-based
# testParameters: Homo sapiens; Becap-37, 72 h; read-out: IC50
assayEndpoint: log10(IC50) (log10 of the value in µg/mL)
Lab note - IC50 converted to log10 from values in µg/mL.

Completed entries (count: 5):
                               linenotation                       assayedtarget  quantitativeresult
0  Cc1c(CN(C)Cc2ccccc2)oc2c1C(=O)C(=O)c1c-2ccc2c(C)cccc12  Becap37 (human breast cancer cell)               -0.37
1  Cc1c(CN(C)CCOC(=O)C(C)(C)C)oc2c1C(=O)C(=O)c1c-2ccc2c(C)cccc12  Becap37 (human breast cancer cell)                0.70
2  Cc1c(CNCCO)oc2c1C(=O)C(=O)c1c-2ccc2c(C)cccc12  Becap37 (human breast cancer cell)               -0.57
3  Cc1c(CN(C)CCOC(=O)CNC(=O)OC(C)(C)C)oc2c1C(=O)C(=O)c1c-2ccc2c(C)cccc12  Becap37 (human breast cancer cell)                0.01
4  Cc1c(CN(C)CCO)oc2c1C(=O)C(=O)c1c-2ccc2c(C)cccc12  Becap37 (human breast cancer cell)               -0.12

The record that follows has no log10(IC50) shown yet.
Exercise: # return recorded log10(IC50) for entry Cc1c(CN2CCCN(C)CC2)oc2c1C(=O)C(=O)c1c-2ccc2c(C)cccc12
Solution: 0.52

###

# Tested on: K562/adr (drug-resistant, chronic myeloid leukemia, CML)
# assayComment: MTT growth inhibition of leukemia cells, 72 h
# Format: cell-based, human
# testParameters: Homo sapiens, K562/Adr, read-out: IC50
Measured IC50, listed per entry.
Numbers only; they are read as µg/mL.

Please review the following examples before continuing.
                                   compound  assayendpoint  quantitativeresult
0  Cc1c(C[N+](C)(CCO)Cc2ccc(F)c(Cl)c2)oc2c1C(=O)C(=O)c1c-2ccc2c(C)cccc12 (stereo not shown)           IC50                1.36
1  CCN(C)Cc1oc2c(c1C)C(=O)C(=O)c1c-2ccc2c(C)cccc12           IC50                1.22
2  C#CCNCc1oc2c(c1C)C(=O)C(=O)c1c-2ccc2c(C)cccc12           IC50                 1.3

# input for lookup
Exercise: Indicate its recorded IC50; the compound in question is Cc1c(CN(C)CCOC(=O)CNC(=O)OC(C)(C)C)oc2c1C(=O)C(=O)c1c-2ccc2c(C)cccc12
Solution: 1.5

###

Each entry below carries its recorded IC50.
# Test system: CNE (nasopharyngeal carcinoma cell)
# assayComment: MTT growth inhibition of human solid tumor cells, 72 h
# Type: cell-based
# testParameters: Homo sapiens, read-out: IC50
# Description: […] Obtaining 4000 well-growing human solid tumor cells and inoculating them into wells of a 96-well cell culture plate. […] Then the viable cell concentration is determined by the MTT method.

Recorded IC50, per entry:
                               linenotation  assayendpoint      result
0  Cc1c(CN(C)CCOC(=O)OC(C)C)oc2c1C(=O)C(=O)c1c-2ccc2c(C)cccc12           IC50  > 16 µg/mL
1  CCCCNCc1oc2c(c1C)C(=O)C(=O)c1c-2ccc2c(C)cccc12           IC50  > 16 µg/mL

Proceeding to the next compound to report its IC50.
Exercise: Look up and state reported IC50 for Cc1c(CNCCC(C)(C)C)oc2c1C(=O)C(=O)c1c-2ccc2c(C)cccc12
Solution: > 16 µg/mL
